Entry source: patent US12194044B2

system_name: Serotonin Transporter (Homo sapiens, UniProt P31645)
Sequence (P31645 whole entry): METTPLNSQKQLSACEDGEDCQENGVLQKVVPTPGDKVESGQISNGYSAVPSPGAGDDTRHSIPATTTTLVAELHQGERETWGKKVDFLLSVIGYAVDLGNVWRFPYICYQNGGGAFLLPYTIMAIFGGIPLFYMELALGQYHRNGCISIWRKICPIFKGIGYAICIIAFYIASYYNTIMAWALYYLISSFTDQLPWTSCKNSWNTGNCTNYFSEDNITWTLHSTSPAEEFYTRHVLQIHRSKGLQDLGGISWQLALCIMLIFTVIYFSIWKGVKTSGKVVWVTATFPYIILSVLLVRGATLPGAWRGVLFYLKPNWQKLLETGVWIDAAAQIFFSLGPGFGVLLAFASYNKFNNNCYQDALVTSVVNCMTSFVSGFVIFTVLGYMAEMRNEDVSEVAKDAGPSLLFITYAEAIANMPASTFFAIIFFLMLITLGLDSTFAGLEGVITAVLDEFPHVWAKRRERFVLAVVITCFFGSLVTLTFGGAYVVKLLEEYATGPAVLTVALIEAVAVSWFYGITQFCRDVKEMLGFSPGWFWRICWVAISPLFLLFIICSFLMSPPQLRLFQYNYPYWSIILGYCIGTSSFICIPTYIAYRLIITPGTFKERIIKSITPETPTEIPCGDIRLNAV
measure: Ki

Briefly, Ki measured for O=C1CN2c3c(cccc3[C@@H]3CN(CCCC(=O)c4ccc(F)cc4)CC[C@@H]32)N1 : > 600 nM

So, O=C(CCCN1CC[C@H]2[C@@H](C1)c1cccc3c1N2CCN3)c1ccc(F)cc1 ? Its Ki was 31 to 78 nM

###

Exercise: for every item that follows, state its recorded AUC.
assay_explanation: Pharmacokinetics in rats, PO and IV cross-over, plasma parent and metabolite AUC
Format: in vivo
test_context: male, Sprague-Dawley, rat, po, 10 mg/kg
Respond with the bare value in ng·h/mL.

So for CN1CCN2c3c(cccc31)[C@@H]1CN(CCCC(=O)c3ccc(F)cc3)CC[C@@H]12 [Formula Q, reference compound] , the logged AUC turned out to be 56

Please fill in: AUC reported for [2H]C1([2H])CN2c3c(cccc3N1C)[C@@H]1CN(CCCC(=O)c3ccc(F)cc3)CC[C@@H]12 (stereo in doubt) [Example 2] = 58.5

###

system_name: Dopamine D1 (Homo sapiens)
Sequence (P21728 whole entry): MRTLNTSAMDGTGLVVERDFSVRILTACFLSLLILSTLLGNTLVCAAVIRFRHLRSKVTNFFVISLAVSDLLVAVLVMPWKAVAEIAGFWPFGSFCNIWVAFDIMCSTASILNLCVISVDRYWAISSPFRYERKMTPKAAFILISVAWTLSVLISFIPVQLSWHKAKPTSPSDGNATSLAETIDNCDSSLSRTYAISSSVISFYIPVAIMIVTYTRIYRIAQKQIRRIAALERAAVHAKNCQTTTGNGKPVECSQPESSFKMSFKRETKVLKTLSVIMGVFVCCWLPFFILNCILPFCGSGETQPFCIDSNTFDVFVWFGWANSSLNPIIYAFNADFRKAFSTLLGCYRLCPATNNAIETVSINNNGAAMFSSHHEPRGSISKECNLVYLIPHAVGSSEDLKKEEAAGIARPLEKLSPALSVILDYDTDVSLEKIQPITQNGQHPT
assay_explanation: Receptor activity Ki, dopamine D1
Type: binding
measure: pKi
Here pKi is given on a logarithmic scale as minus log10 of the concentration in mol/L.

Entry under test: O=C(CCCN1CC[C@H]2[C@@H](C1)c1cccc3c1N2CCN3)c1ccc(F)cc1 . Its pKi was 6.96

###

measure: pKi
Schema: pKi number; meaning minus log10 of the concentration expressed in molar units.

Record for O=C(CCCN1CC[C@H]2[C@@H](C1)c1cccc3c1N2CCN3)c1ccc(F)cc1 under target or system UniProt P28223: pKi reported as 8.70
